// data source = patent US20160264649A1

molecular target: HIV-1 92BR020 Env (HIV-1 strain 92BR020); experiment: cell-based or functional assay
measured-property: IC50 neutralization, 1 hour virus/Ab incubation

Documented IC50 neutralization, 1 hour virus/Ab incubation of 1443_C16 (PG16) (TCN-116) (antibody, V domains shown) VH: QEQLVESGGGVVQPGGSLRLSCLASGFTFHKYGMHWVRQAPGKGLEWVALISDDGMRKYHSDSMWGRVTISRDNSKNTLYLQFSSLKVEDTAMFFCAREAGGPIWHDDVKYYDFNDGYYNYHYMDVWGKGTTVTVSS VL: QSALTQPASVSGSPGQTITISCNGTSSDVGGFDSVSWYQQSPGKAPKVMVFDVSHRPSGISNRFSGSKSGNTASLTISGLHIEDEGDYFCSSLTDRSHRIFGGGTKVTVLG : > 50 µg/mL

Further cases:
Documented IC50 neutralization, 1 hour virus/Ab incubation of 1460_G14 (PGG14) (antibody, human IgG1, kappa, V domains shown) VH: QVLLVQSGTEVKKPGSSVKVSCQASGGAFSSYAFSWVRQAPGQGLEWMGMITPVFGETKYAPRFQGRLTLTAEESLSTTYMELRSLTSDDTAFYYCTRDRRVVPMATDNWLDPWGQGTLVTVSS VL: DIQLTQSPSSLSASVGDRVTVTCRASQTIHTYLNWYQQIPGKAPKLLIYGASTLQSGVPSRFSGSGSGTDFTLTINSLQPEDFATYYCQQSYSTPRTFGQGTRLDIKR : > 50 µg/mL

Documented IC50 neutralization, 1 hour virus/Ab incubation of 1496_C09 (PG9) (TCN-109) (antibody, V domains shown) VH: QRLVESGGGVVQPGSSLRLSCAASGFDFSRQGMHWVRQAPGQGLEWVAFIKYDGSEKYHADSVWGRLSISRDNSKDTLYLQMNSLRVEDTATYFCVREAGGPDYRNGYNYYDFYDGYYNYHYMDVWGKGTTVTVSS VL: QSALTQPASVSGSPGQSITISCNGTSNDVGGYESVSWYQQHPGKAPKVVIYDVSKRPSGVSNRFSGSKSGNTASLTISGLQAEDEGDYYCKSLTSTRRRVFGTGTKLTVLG : > 50 µg/mL

Documented IC50 neutralization, 1 hour virus/Ab incubation of 1495_C14 (PGC14) (antibody, human IgG1, lambda, V domains shown) VH: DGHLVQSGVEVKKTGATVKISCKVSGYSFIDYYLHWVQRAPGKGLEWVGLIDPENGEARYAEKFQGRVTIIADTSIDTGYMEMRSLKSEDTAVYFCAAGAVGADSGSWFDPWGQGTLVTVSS VL: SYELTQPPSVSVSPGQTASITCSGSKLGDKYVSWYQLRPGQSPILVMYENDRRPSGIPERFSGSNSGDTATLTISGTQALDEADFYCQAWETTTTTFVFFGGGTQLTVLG : 1.17 µg/mL

Documented IC50 neutralization, 1 hour virus/Ab incubation of 1456_P20 (PG20) (antibody, human IgG1, kappa, V domains shown) VH: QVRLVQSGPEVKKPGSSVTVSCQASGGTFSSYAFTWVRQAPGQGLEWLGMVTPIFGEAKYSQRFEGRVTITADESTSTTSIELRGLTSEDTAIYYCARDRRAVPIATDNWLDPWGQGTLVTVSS VL: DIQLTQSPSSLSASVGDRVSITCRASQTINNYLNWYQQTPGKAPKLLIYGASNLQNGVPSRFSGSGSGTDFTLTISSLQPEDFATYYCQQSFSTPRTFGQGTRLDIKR : > 50 µg/mL
